# method-summary: Stability in mouse liver microsomes at […] preincubated for 3 mins followed by NADPH addition measured after 1 hr in presence of GSH and [13C2-15N-glycine]-GSH by HPLC/MS method
# Type: ADME, microsome
# test-settings: read-out: Stability
readout-name: remaining at 1 h (%)

> print(dat)
                         compound.structure  value.reported
1  Cc1ccccc1NC(=O)C[C@@H](C)C(=O)N[C@@H]1C(=O)N2CCCN2Cc2ccccc21              92

---

# method-summary: Drug uptake in Lewis rat spleen at 3 mg/kg, po bid after 24 hrs by LC/MS/MS analysis
# Format: ADME, organism-based
# test-settings: read-out: Drug uptake
readout-name: concentration at 24 h

> print(dat)
                         compound.structure  value.reported
1  Cc1ncc(F)cc1NC(=O)C[C@H](C(=O)N[C@@H]1C(=O)N2CC3(CC3)CN2C(=O)c2ccccc21)C1CC1          860 nM

---

# method-summary: Equilibrium solubility of the compound at pH 6.8 after 24 hrs by saturation shake flask based UV-HPLC method
# Format: physicochemical
# test-settings: buffer
Listed below: solubility thermodynamic at 24 h values for each entry.
readout-name: solubility thermodynamic at 24 h (µM)

> print(dat)
                         compound.structure                      readout.name  value.prefix  value.reported
1  Cc1ncc(F)cc1NC(=O)C[C@@H](C)C(=O)N[C@@H]1C(=O)N2CCCN2Cc2c(F)cccc21  solubility thermodynamic at 24 h             =             257
2  Cc1ccccc1NC(=O)C[C@@H](C)C(=O)N[C@@H]1C(=O)N2CCCN2Cc2ccccc21  solubility thermodynamic at 24 h             =             263
3  Cc1ncc(F)cc1NC(=O)C[C@@H](C)C(=O)N[C@@H]1C(=O)N2CCCN2Cc2ccccc21  solubility thermodynamic at 24 h             >            1000
4  Cc1ncccc1NC(=O)C[C@@H](C)C(=O)N[C@@H]1C(=O)N2CCCN2Cc2ccccc21  solubility thermodynamic at 24 h             >            1000

---

# method-summary: Drug uptake in Lewis rat spleen at 1 mg/kg, po bid after 24 hrs by LC/MS/MS analysis
# Assay type: ADME, organism-based
# test-settings: read-out: Drug uptake
readout-name: concentration at 24 h (nM)

> print(dat)
                         compound.structure  value.reported
1  Cc1ncc(F)cc1NC(=O)C[C@H](C(=O)N[C@@H]1C(=O)N2CC3(CC3)CN2C(=O)c2ccccc21)C1CC1             330

---

# test-system: Signal peptide peptidase-like 2A (Homo sapiens, UniProt Q8TCT8)
# Sequence (Q8TCT8 whole entry): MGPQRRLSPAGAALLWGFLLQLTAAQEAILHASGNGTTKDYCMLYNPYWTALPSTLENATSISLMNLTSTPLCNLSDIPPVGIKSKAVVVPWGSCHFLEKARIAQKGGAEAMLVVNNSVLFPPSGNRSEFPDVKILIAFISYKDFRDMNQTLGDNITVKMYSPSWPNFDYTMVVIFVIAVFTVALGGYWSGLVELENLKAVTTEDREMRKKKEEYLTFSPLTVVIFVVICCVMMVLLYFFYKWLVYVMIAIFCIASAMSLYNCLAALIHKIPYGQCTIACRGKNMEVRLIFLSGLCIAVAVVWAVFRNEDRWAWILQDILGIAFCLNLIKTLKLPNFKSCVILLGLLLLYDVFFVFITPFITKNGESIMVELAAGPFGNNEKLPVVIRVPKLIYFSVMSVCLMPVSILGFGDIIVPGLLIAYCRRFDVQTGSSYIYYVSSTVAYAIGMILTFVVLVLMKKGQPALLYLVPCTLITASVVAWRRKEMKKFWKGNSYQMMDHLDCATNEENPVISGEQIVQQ
# method-summary: Inhibition of human SPPL2a expressed in HEK293 cells using GAL4-VP16 fusedTNFalpha (1 to 76)-NTF as substrate after 24 hrs by Bright-Glo luciferase reporter gene assay
# Format: cell-based
Listed below: IC50 values for each entry.
readout-name: IC50 (nM)

> print(dat)
                         compound.structure  value.reported
1  Cc1ncc(F)cc1NC(=O)C[C@@H](C)C(=O)N[C@@H]1C(=O)N2CCCN2Cc2ccccc21              44
2  C[C@H](NC(=O)[C@@H](O)c1cc(F)cc(F)c1)C(=O)N[C@@H]1C(=O)N(C)c2ccccc2-c2ccccc21              10
3  C[C@H](CC(=O)Nc1cc(F)cc(F)c1)C(=O)N[C@@H]1C(=O)N2CCCN2Cc2ccccc21               5
4  Cc1ncccc1NC(=O)C[C@@H](C)C(=O)N[C@@H]1C(=O)N2CCCN2Cc2ccccc21            1020

---

# method-summary: Half life in Balb/c mouse at 5 mg/kg, iv by LC/MS/MS analysis
# Assay type: ADME, organism-based
# test-settings: in vivo
readout-name: half-life (min)

> print(dat)
                         compound.structure  readout.name  value.reported
1  Cc1ccccc1NC(=O)C[C@@H](C)C(=O)N[C@@H]1C(=O)N2CCCN2Cc2ccccc21     half-life              42

---

# method-summary: Total plasma concentration in mouse at 10 mg/kg administered via oral gavage measured after 16 hrs post dose by LC/MS/MS analysis
# Format: ADME, organism-based
readout-name: concentration at 16 h

> print(dat)
                         compound.structure  value.reported
1  Cc1ncc(F)cc1NC(=O)C[C@H](C(=O)N[C@@H]1C(=O)N2CC3(CC3)CN2C(=O)c2ccccc21)C1CC1         11.8 nM

---

# method-summary: Drug uptake in mouse spleen at 30 mg/kg, po administered as single dose after 4 hrs by LC/MS/MS analysis
# Format: ADME, organism-based
# test-settings: read-out: Drug uptake
readout-name: concentration at 4 h (nM)

> print(dat)
                         compound.structure          readout.name  value.reported
1  Cc1ccccc1NC(=O)C[C@@H](C)C(=O)N[C@@H]1C(=O)N2CCCN2Cc2ccccc21  concentration at 4 h             434

---

# Tested on: Plasma
# method-summary: Cmin in mouse plasma at 10 mg/kg, po bid administered at 8 and 16 hrs dosing interval between first and second dose respectively for 11 days measured predose on day 12 by LC/MS/MS analysis
# Assay type: ADME, organism-based
# test-settings: in vivo, read-out: Cmin
readout-name: concentration (nM)

> print(dat)
                         compound.structure  unit.string  value.reported
1  Cc1ncc(F)cc1NC(=O)C[C@H](C(=O)N[C@@H]1C(=O)N2CC3(CC3)CN2C(=O)c2ccccc21)C1CC1           nM              66

---

# test-system: Signal peptide peptidase-like 2A (Homo sapiens)
# method-summary: Inhibition of human SPPL2a expressed in HEK293 cells using GAL4-VP16 fusedTNFalpha (1 to 76)-NTF as substrate after 24 hrs by Bright-Glo luciferase reporter gene assay
# Type: cell-based
pIC50: −log10 of the molar value.
Listed below: pIC50 values for each entry.
readout-name: pIC50

> print(dat)
                         compound.structure                               test.system  value.reported
1  Cc1ncc(F)cc1NC(=O)C[C@H](C(=O)N[C@@H]1C(=O)N2CC3(CC3)CN2C(=O)c2ccccc21)C1CC1  Signal peptide peptidase-like 2A (Homo sapiens)            7.11
2  CC(C)C[C@H](NC(=O)OCc1ccccc1)C(=O)N[C@@H](CC(C)C)C(=O)NCC(=O)CNC(=O)[C@H](CC(C)C)NC(=O)[C@H](CC(C)C)NC(=O)OCc1ccccc1  Signal peptide peptidase-like 2A (Homo sapiens)            8.22
3  Cc1ncc(F)cc1NC(=O)C[C@@H](C)C(=O)N[C@@H]1C(=O)N2CCCN2Cc2c(F)cccc21  Signal peptide peptidase-like 2A (Homo sapiens)            7.12
4  C[C@H](CC(=O)Nc1ccccc1C(F)(F)F)C(=O)N[C@@H]1C(=O)N2CCCN2Cc2ccccc21  Signal peptide peptidase-like 2A (Homo sapiens)            5.55
5  Cc1ccccc1NC(=O)C[C@@H](C)C(=O)N[C@@H]1C(=O)N2CCCN2Cc2ccccc21  Signal peptide peptidase-like 2A (Homo sapiens)            7.46
6  Cc1cccc(NC(=O)C[C@@H](C)C(=O)N[C@@H]2C(=O)N3CCCN3Cc3ccccc32)c1  Signal peptide peptidase-like 2A (Homo sapiens)            7.15
